Each record here notes measured IC50.
Molecular target: human Gal-3 (hGal-3) (Homo sapiens (Human), UniProt P17931)
Sequence (P17931 whole entry): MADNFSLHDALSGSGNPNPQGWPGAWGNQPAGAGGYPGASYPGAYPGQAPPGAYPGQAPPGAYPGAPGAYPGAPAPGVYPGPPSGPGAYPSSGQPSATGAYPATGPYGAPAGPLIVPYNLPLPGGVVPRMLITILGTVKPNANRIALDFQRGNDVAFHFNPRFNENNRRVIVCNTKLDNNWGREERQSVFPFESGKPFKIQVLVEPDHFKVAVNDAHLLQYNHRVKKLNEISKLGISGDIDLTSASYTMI
Test: Competitive binding assay: biotinylated hGal-3 binding to microplate-adsorbed asialofetuin (ASF)
Details: Activity on hGal-3; mean values of several measurements; mixture of diastereomers measured where not separated

{"smilesStructure": "CO[C@@H]1[C@@H](n2cc(-c3cc(F)c(F)c(F)c3)nn2)[C@@H](O)[C@@H](CO)O[C@H]1C(=O)N(c1cc(Br)cc(Br)c1)[C@@H]1COC[C@H]1O", "targetSystem": "human Gal-3 (hGal-3) (Homo sapiens (Human), UniProt P17931)", "unitAbbrev": "nM", "IC50": 84}
{"smilesStructure": "CO[C@@H]1[C@@H](n2cc(-c3cc(F)c(F)c(F)c3)nn2)[C@@H](O)[C@@H](CO)O[C@H]1C(=O)N(c1cc(C)cc(Br)c1)[C@H]1COC[C@@H]1O", "targetSystem": "human Gal-3 (hGal-3) (Homo sapiens (Human), UniProt P17931)", "unitAbbrev": "nM", "IC50": 77}
{"smilesStructure": "CO[C@@H]1[C@@H](n2cc(-c3cc(F)c(F)c(F)c3)nn2)[C@@H](O)[C@@H](CO)O[C@H]1C(=O)N(c1cc(Cl)cc(C#N)c1)[C@@H]1COC[C@H]1O", "targetSystem": "human Gal-3 (hGal-3) (Homo sapiens (Human), UniProt P17931)", "unitAbbrev": "nM", "IC50": 102}

###

Molecular target: human Gal-3 (hGal-3) (Homo sapiens (Human))
Experiment: Competitive binding assay: biotinylated hGal-3 binding to microplate-adsorbed asialofetuin (ASF)
Conditions: Activity on hGal-3; mean values of several measurements; mixture of diastereomers measured where not separated
Each record here notes measured IC50.
quantityKind: IC50 (nM)

{"smilesStructure": "CO[C@@H]1[C@@H](n2cc(-c3cc(F)c(Cl)c(F)c3)nn2)[C@@H](O)[C@@H](CO)O[C@H]1C(=O)N(c1cc(C)cc(Br)c1)[C@@H]1COC[C@H]1O", "unitAbbrev": "nM", "assayResult": 89}
{"smilesStructure": "CO[C@@H]1[C@@H](n2cc(-c3cc(F)c(Cl)c(F)c3)nn2)[C@@H](O)[C@@H](CO)O[C@H]1C(=O)N(c1cc(Cl)cc(Cl)c1)[C@@H]1COC[C@H]1O", "unitAbbrev": "nM", "assayResult": 73}
{"smilesStructure": "CO[C@@H]1[C@@H](n2cc(-c3ccc(Cl)c(Cl)c3)nn2)[C@@H](O)[C@@H](CO)O[C@H]1C(=O)N(c1cc(Cl)cc(Cl)c1)[C@@H]1COC[C@H]1O", "unitAbbrev": "nM", "assayResult": 164}
{"smilesStructure": "CO[C@@H]1[C@@H](n2cc(-c3cc(F)c(F)c(F)c3)nn2)[C@@H](O)[C@@H](CO)O[C@H]1C(=O)N(c1cc(C)cc(Br)c1)[C@H]1CN(C)C[C@@H]1O", "unitAbbrev": "nM", "assayResult": 51}
{"smilesStructure": "CO[C@@H]1[C@@H](n2cc(-c3cc(F)c(F)c(F)c3)nn2)[C@@H](O)[C@@H](CO)O[C@H]1C(=O)N(c1cc(F)cc(C#N)c1)[C@H]1COC[C@@H]1O", "unitAbbrev": "nM", "assayResult": 124}
